Provide the recorded FACS-Seq fitted mean (log10) for the entries that follow.
B1: library; a variant is named by its letters at N, in order (parent)
chain: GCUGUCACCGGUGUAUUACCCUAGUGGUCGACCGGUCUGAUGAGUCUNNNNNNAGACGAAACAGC

variants of: B1; test: FACS-Seq fitted mean relative fluorescence mCherry/BFP with ligand (log10 relative fluorescence); ligand: hypoxanthine (xanthine aptamer); ligand concentration (+) FACS-Seq: 5 mM; higher = higher reporter protein expression; settings: HEK293T, ligand present: yes
Write the value as a bare number.

Sure, the documented FACS-Seq fitted mean (log10) for GCUGUCACCGGUGUAUUACCCUAGUGGUCGACCGGUCUGAUGAGUCUAAGUAUAGACGAAACAGC [AAGUAU] is 0.301

Recorded FACS-Seq fitted mean (log10) (variant GCUGUCACCGGUGUAUUACCCUAGUGGUCGACCGGUCUGAUGAGUCUAGUCAUAGACGAAACAGC [AGUCAU] ): 0.509

Quick note, FACS-Seq fitted mean (log10) for GCUGUCACCGGUGUAUUACCCUAGUGGUCGACCGGUCUGAUGAGUCUCGCUGAAGACGAAACAGC [CGCUGA] landed at 0.635

// FACS-Seq fitted mean (log10) lookup, variant = GCUGUCACCGGUGUAUUACCCUAGUGGUCGACCGGUCUGAUGAGUCUGUCGCAAGACGAAACAGC [GUCGCA] , result: 0.56

Entry GCUGUCACCGGUGUAUUACCCUAGUGGUCGACCGGUCUGAUGAGUCUUCGAUCAGACGAAACAGC [UCGAUC] ; FACS-Seq fitted mean (log10) = 0.59

Just so you know, measured FACS-Seq fitted mean (log10) for GCUGUCACCGGUGUAUUACCCUAGUGGUCGACCGGUCUGAUGAGUCUUACGGGAGACGAAACAGC [UACGGG] came out at 0.553

variant GCUGUCACCGGUGUAUUACCCUAGUGGUCGACCGGUCUGAUGAGUCUGGGGAGAGACGAAACAGC [GGGGAG] , FACS-Seq fitted mean (log10) observed: -0.0598

According to the records, this variant GCUGUCACCGGUGUAUUACCCUAGUGGUCGACCGGUCUGAUGAGUCUAAUUAGAGACGAAACAGC [AAUUAG] displays FACS-Seq fitted mean (log10) of 0.681

Quick note, FACS-Seq fitted mean (log10) for GCUGUCACCGGUGUAUUACCCUAGUGGUCGACCGGUCUGAUGAGUCUUGUGUGAGACGAAACAGC [UGUGUG] landed at 0.333

The variant identified as GCUGUCACCGGUGUAUUACCCUAGUGGUCGACCGGUCUGAUGAGUCUAUGUAAAGACGAAACAGC [AUGUAA] registered its FACS-Seq fitted mean (log10) at 0.279

Measured FACS-Seq fitted mean (log10) of GCUGUCACCGGUGUAUUACCCUAGUGGUCGACCGGUCUGAUGAGUCUGCGGCGAGACGAAACAGC [GCGGCG] : -0.0806

response.value for GCUGUCACCGGUGUAUUACCCUAGUGGUCGACCGGUCUGAUGAGUCUAAUCACAGACGAAACAGC [AAUCAC] (field: FACS-Seq fitted mean (log10)) = -0.545

Memo: GCUGUCACCGGUGUAUUACCCUAGUGGUCGACCGGUCUGAUGAGUCUAAAGGGAGACGAAACAGC [AAAGGG] , reported FACS-Seq fitted mean (log10): 0.292

FACS-Seq fitted mean (log10) for GCUGUCACCGGUGUAUUACCCUAGUGGUCGACCGGUCUGAUGAGUCUGGAGCUAGACGAAACAGC [GGAGCU] is -0.117

Notebook: GCUGUCACCGGUGUAUUACCCUAGUGGUCGACCGGUCUGAUGAGUCUGAAUGUAGACGAAACAGC [GAAUGU] , FACS-Seq fitted mean (log10) read as 0.381

Input GCUGUCACCGGUGUAUUACCCUAGUGGUCGACCGGUCUGAUGAGUCUAAAGCAAGACGAAACAGC [AAAGCA] . Output FACS-Seq fitted mean (log10): 0.503

Entry GCUGUCACCGGUGUAUUACCCUAGUGGUCGACCGGUCUGAUGAGUCUCGGUAUAGACGAAACAGC [CGGUAU] ; FACS-Seq fitted mean (log10) = 0.468

Per the record, GCUGUCACCGGUGUAUUACCCUAGUGGUCGACCGGUCUGAUGAGUCUAGUGGCAGACGAAACAGC [AGUGGC] has FACS-Seq fitted mean (log10) of 0.0818

# FACS-Seq fitted mean (log10) of GCUGUCACCGGUGUAUUACCCUAGUGGUCGACCGGUCUGAUGAGUCUACUAAGAGACGAAACAGC [ACUAAG] = 0.236

GCUGUCACCGGUGUAUUACCCUAGUGGUCGACCGGUCUGAUGAGUCUUUUGAAAGACGAAACAGC [UUUGAA] yielded FACS-Seq fitted mean (log10) of 0.351

Just so you know, measured FACS-Seq fitted mean (log10) for GCUGUCACCGGUGUAUUACCCUAGUGGUCGACCGGUCUGAUGAGUCUGGAUGAAGACGAAACAGC [GGAUGA] came out at 0.633

Briefly, FACS-Seq fitted mean (log10) measured for GCUGUCACCGGUGUAUUACCCUAGUGGUCGACCGGUCUGAUGAGUCUUACGAUAGACGAAACAGC [UACGAU] : -0.543

Reference source: the supplement of paper PMC6757056
